- Test system: H3N2 subtype
- experiment notes: Antiviral activity against Influenza A virus A/HK/7/87(H3N2) infected in MDCK cells assessed as reduction in virus-induced cytopathic effect after 3 days by microscopic method
- Assay type: functional, organism-based
- experimental conditions: A/Hong Kong/7/1987(H3N2), 72 h
pEC50: −log10 of the molar value.
assay readout: pEC50

CCCCCCCCOCc1cn(CCOCCOCCOCCOCc2cn([C@H]3C(=O)N[C@@H]4Cc5ccc(c(Cl)c5)Oc5cc6cc(c5O)Oc5ccc(cc5Cl)[C@@H](O[C@@H]5O[C@H](CO)[C@@H](O)[C@H](O)[C@H]5NC(C)=O)[C@H]5NC(=O)[C@H](NC(O)[C@@H]6NC(=O)[C@@H](NC4=O)c4cc(O)cc(c4)Oc4cc3ccc4O)c3ccc(O)c(c3)-c3c(O)cc(O)cc3[C@H](C(=O)O)NC5=O)nn2)nn1 (stereo partly drawn)	< 4.00
CCCCCCCCSC1=C(SCCCCCCCC)C(=O)N(CCOCCOCCOCCOCc2cn(C3C(=O)N[C@@H]4Cc5ccc(c(Cl)c5)Oc5cc6cc(c5O)Oc5ccc(cc5Cl)[C@@H](O[C@@H]5O[C@H](CO)[C@@H](O)[C@H](O)[C@H]5NC(C)=O)[C@H]5NC(=O)[C@H](NC(O)[C@@H]6NC(=O)[C@@H](NC4=O)c4cc(O)cc(c4)Oc4cc3ccc4O)c3ccc(O)c(c3)-c3c(O)cc(O)cc3[C@H](C(=O)O)NC5=O)nn2)C1=O (stereo partly drawn)	6.04
CCCCCCOCc1cn(CCOCCOCCOCCOCc2cn([C@H]3C(=O)N[C@@H]4Cc5ccc(c(Cl)c5)Oc5cc6cc(c5O)Oc5ccc(cc5Cl)[C@@H](O[C@@H]5O[C@H](CO)[C@@H](O)[C@H](O)[C@H]5NC(C)=O)[C@H]5NC(=O)[C@H](NC(O)[C@@H]6NC(=O)[C@@H](NC4=O)c4cc(O)cc(c4)Oc4cc3ccc4O)c3ccc(O)c(c3)-c3c(O)cc(O)cc3[C@H](C(=O)O)NC5=O)nn2)nn1 (stereo partly drawn)	< 4.00

----------
- experiment notes: Cytotoxicity against MDCK cells assessed as alteration in cell morphology after 3 days by microscopic method
- Assay type: cell-based, Canis lupus familiaris
- experimental conditions: dog
assay readout: MCC at 72 h (µM)

CCCCCCCCCCCCSC1=C(SCCCCCCCCCCCC)C(=O)N(Cc2cn(C3C(=O)N[C@@H]4Cc5ccc(c(Cl)c5)Oc5cc6cc(c5O)Oc5ccc(cc5Cl)[C@@H](O[C@@H]5O[C@H](CO)[C@@H](O)[C@H](O)[C@H]5NC(C)=O)[C@H]5NC(=O)[C@H](NC(O)[C@@H]6NC(=O)[C@@H](NC4=O)c4cc(O)cc(c4)Oc4cc3ccc4O)c3ccc(O)c(c3)-c3c(O)cc(O)cc3[C@H](C(=O)O)NC5=O)nn2)C1=O (stereo partly specified)	100

----------
- System: MDCK
- experiment notes: Cytotoxicity against MDCK cells assessed as reduction in cell viability after 3 days by MTS assay
- Type: cell-based, Canis lupus familiaris
- experimental conditions: dog, mdck, 72 h
Listed here: items and their measured CC50.
assay readout: CC50

CC(N)C12CC3CC(CC(C3)C1)C2 (stereo not drawn)	> 500 µM
CCCCCCSC1=C(SCCCCCC)C(=O)N(Cc2cn(C3C(=O)N[C@@H]4Cc5ccc(c(Cl)c5)Oc5cc6cc(c5O)Oc5ccc(cc5Cl)[C@@H](O[C@@H]5O[C@H](CO)[C@@H](O)[C@H](O)[C@H]5NC(C)=O)[C@H]5NC(=O)[C@H](NC(O)[C@@H]6NC(=O)[C@@H](NC4=O)c4cc(O)cc(c4)Oc4cc3ccc4O)c3ccc(O)c(c3)-c3c(O)cc(O)cc3[C@H](C(=O)O)NC5=O)nn2)C1=O (stereo partly drawn)	12 µM
CCCCSC1=C(SCCCC)C(=O)N([C@H]2C(=O)N[C@@H]3Cc4ccc(c(Cl)c4)Oc4cc5cc(c4O)Oc4ccc(cc4Cl)[C@@H](O[C@@H]4O[C@H](CO)[C@@H](O)[C@H](O)[C@H]4NC(C)=O)[C@H]4NC(=O)[C@H](NC(O)[C@@H]5NC(=O)[C@@H](NC3=O)c3cc(O)cc(c3)Oc3cc2ccc3O)c2ccc(O)c(c2)-c2c(O)cc(O)cc2[C@H](C(=O)O)NC4=O)C1=O (stereo partly drawn)	8.6 µM
